system: nutsedge, yellow (yellow nutsedge, Cyperus esculentus); test: Test C greenhouse herbicide test, pre- and postemergence; type: in vivo; conditions: Postemergence, 31 g ai/ha; 0 to 100 scale (0 no effect, 100 complete control)
Item-by-item account of Nutsedge, Yellow plant response rating
quantity-measured: Nutsedge, Yellow plant response rating

Cc1nn(C)c(=O)c(-c2c(C)sc3c(C)cc(Cl)cc23)c1O :: 75
CCC(=O)Oc1c(C)nn(C)c(=O)c1-c1c(C)ccc2ccccc12 :: 0
Cc1ccc2ccccc2c1-c1c(O)c(I)nn(C)c1=O :: 25
Cc1nn(C)c(=O)c(-c2ccc(Br)c3ccccc23)c1O :: 25
Cc1ccc2sc(C)c(-c3c(OC(=O)OC(C)C)c(C)nn(C)c3=O)c2c1 :: 65

====

system: foxtail, giant (giant foxtail, Setaria faberii); assay: Test A greenhouse herbicide test, pre- and postemergence; assay type: in vivo; conditions: Preemergence, 125 g ai/ha; 0 to 100 scale where 0 is no effect and 100 is complete control
quantity-measured: Foxtail, Giant plant response rating

CCCC(=O)Oc1c(C)nn(C)c(=O)c1-c1c(CC)sc2ccc(C)cc12 [Compound 107] :: 70
CCc1nn(C)c(=O)c(-c2c(C)oc3ccc(C)cc23)c1O [Compound 118] :: 0
CCc1sc2ccc(C)cc2c1-c1c(O)c(C)nn(C)c1=O [Compound 47] :: 70
Cc1nn(C)c(=O)c(-c2cccc3ccc(OC(F)F)cc23)c1O [Compound 93] :: 0
COc1ccc(-c2c(O)c(C)nn(C)c2=O)c2ccccc12 [Compound 58] :: 0
CCC(=O)Oc1c(C)nn(C)c(=O)c1-c1ccc(Br)c2ccccc12 [Compound 134] :: 50
COc1nn(C)c(=O)c(-c2c(C)ccc3ccc(C)cc23)c1O [Compound 30] :: 0

====

system: crabgrass, large (large crabgrass, Digitaria sanguinalis); experiment: Test C greenhouse herbicide test, pre- and postemergence; type: in vivo; conditions: Preemergence, 31 g ai/ha; scale 0 to 100, 0 is no effect, 100 is complete control
Item-by-item account of Plant response rating, Crabgrass, Large
quantity-measured: Plant response rating, Crabgrass, Large

Cn1nc(Br)c(O)c(-c2cccc3ccccc23)c1=O [Compound 20] :: 10
Cc1ccc2sc(Br)c(-c3c(O)c(C)nn(C)c3=O)c2c1 [Compound 79] :: 25
Cc1ccc2ccccc2c1-c1c(O)c(I)nn(C)c1=O [Compound 29] :: 5
COC(=O)Oc1cnn(C)c(=O)c1-c1c(C)sc2ccccc12 [Compound 97] :: 0
Cc1ccc2ccccc2c1-c1c(O)c(C(F)(F)F)nn(C)c1=O [Compound 102] :: 0
COC(=O)Oc1c(C)nn(C)c(=O)c1-c1c(C)sc2ccc(C)cc12 [Compound 80] :: 10

====

system: barnyardgrass (Echinochloa crus-galli); test: Test E greenhouse herbicide test, pre- and postemergence; assay type: in vivo; conditions: 125 g ai/ha, Postemergence; scale 0 to 100 (0 no effect, 100 complete control)
Item-by-item account of Plant response rating, Barnyardgrass
quantity-measured: Plant response rating, Barnyardgrass

CCCC(=O)Oc1c(C)nn(C)c(=O)c1-c1c(C)sc2ccc(C)cc12 :: 30
Cn1nc(Br)c(O)c(-c2cccc3ccccc23)c1=O :: 60
Cc1ccc2sc(Br)c(-c3c(O)c(C)nn(C)c3=O)c2c1 :: 20
Cc1ccc2ccccc2c1-c1c(OC(=O)OC(C)C)c(C)nn(C)c1=O :: 40
